system: MDA-MB-468 breast; experiment: NCI tumour cell line growth inhibition, 48 h
recorded_metric: GI50

molecule=Cn1cc(C2=C(c3cn(CCCCCSC(=N)N)c4ccccc34)C(=O)NC2=O)c2ccccc21 result="1.55 µM"
molecule="CSc1ccc2c(c1)C(N1CCN(C)CC1)Cc1ccccc1S2 (centres undefined)" result="1.47 µM"

Entry `CCN1CCN(C(=O)[C@]23CCC(C)(C)C[C@@H]2C2=CC[C@@H]4[C@@]5(C)C/C(=C/c6ccncc6)C(=O)C(C)(C)[C@@H]5CC[C@@]4(C)[C@]2(C)CC3)CC1` , tested on MDA-MB-468 breast, has a reported GI50 of 1.43 µM

Entry `Cc1cc(Cl)nc(N(CCCNc2ccnc3cc(Cl)ccc23)Cc2ccco2)n1` , tested on MDA-MB-468 breast, has a reported GI50 of 1.12 µM
